FYI, the data here is from the Immune Epitope Database (IEDB).

Target: HLA-A*02:06
Assay: IEDB peptide-MHC binding, purified MHC/competitive/radioactivity; filed as Kd, often an IC50 or EC50 that approximates it; bounds were set here for any values at or beyond the usual limits of such assays
Details: source organism: Vaccinia virus WR
readout-type: log10 Kd (log10 of the value in nM)
All values: base-10 log of Kd in nM.

Query :: Query: log10 Kd; subject: FLPQIGGEAI
Result :: 1.00

Query :: Follow-up item: TIAVSVYGAI
Result :: 3.73

Query :: Please answer likewise for DLLNVTYNI
Result :: 3.11

Query :: Same question for IISLFYTFAI please.
Result :: 2.16

Query :: Then RTMPNESRV ?
Result :: 2.19

Query :: Would you mind doing VVIVENDNV as well?
Result :: 3.63

Query :: Also, KVYLSTFNM please.
Result :: 2.42

Query :: Similarly, TIAGGVCYYL ?
Result :: 0.60

Query :: And for KVEKYLPEV ?
Result :: 2.06
